# Assay overview: Lipophilicity, log P of the compound
# Type: physicochemical
# Cond: octanol/water
Assay endpoint: logP

Known results for compounds:
- Compound: "CC(C)c1ccc(C(Nc2ccc(C3(C)NC(=O)c4ccccc4N3)cc2)c2nnnn2C(C)(C)C)cc1 (stereo not drawn)"
  Assay value: 6.03
- Compound: "CC1(c2ccc(Nc3nc(N4CCCCC4)nc(N4CCCCC4)n3)cc2)NC(=O)c2ccccc2N1 (stereo not drawn)"
  Assay value: 6.23
- Compound: "CC(C)c1ccc(C(C(=O)NC2CCCCC2)N(C(=O)c2cccc(Cl)c2)c2ccc(C3(C)NC(=O)c4ccccc4N3)cc2)cc1 (stereo not drawn)"
  Assay value: 8.53
- Compound: "CCCCCNc1nc(NCCCCC)nc(Nc2ccc(C3(C)NC(=O)c4ccccc4N3)cc2)n1 (stereo not drawn)"
  Assay value: 7.57
- Compound: "CC1(c2ccc(Nc3nc(NCc4ccccc4)nc(NCc4ccccc4)n3)cc2)NC(=O)c2ccccc2N1 (stereo not drawn)"
  Assay value: 6.49

[P] Nc1nc(-c2ccc(Cl)cc2)cc(-c2ccc(C3NC(=O)c4ccccc4N3)cc2)n1 (stereo not drawn)
[Q] CC1(c2ccc(Nc3nc(N4CCc5ccccc5C4)nc(N4CCc5ccccc5C4)n3)cc2)NC(=O)c2ccccc2N1 (stereo not drawn)
IN: # return whichever of P and Q has the smaller logP When you have decided, please share the label of that item.
OUT: P
(P: 4.49, Q: 7.19)

* * *

# System: Leishmania donovani
# Assay overview: Antileishmanial activity against amastigotes of Leishmania donovani MHOM/IN/60/Dd8 infected in mouse J-774A.1 cells after 72 hrs by luciferase reporter gene assay
# Format: functional, organism-based
# Cond: MHOM/IN/60/Dd8, J774.A1, 72 h
pIC50: −log10 of the molar value.
Assay endpoint: pIC50

- Compound: "COc1ccc(-c2cc(-c3ccc(C4NC(=O)c5ccccc5N4)cc3)nc(N)n2)cc1 (stereo not given)"
  Target entity: "Leishmania donovani"
  pIC50: 5.00
- Compound: "CN1CCN(c2ccc(-c3cc(-c4ccc(C5NC(=O)c6ccccc6N5)cc4)nc(N)n3)cc2)CC1 (stereo not given)"
  Target entity: "Leishmania donovani"
  pIC50: 6.19
- Compound: "CCCNc1nc(NCCC)nc(Nc2ccc(C3(C)NC(=O)c4ccccc4N3)cc2)n1 (stereo not given)"
  Target entity: "Leishmania donovani"
  pIC50: 5.05
- Compound: "CC1(c2ccc(Nc3nc(N4CCCCC4)nc(N4CCCCC4)n3)cc2)NC(=O)c2ccccc2N1 (stereo not given)"
  Target entity: "Leishmania donovani"
  pIC50: 5.40
- Compound: "CC(C)c1ccc(C(Nc2ccc(C3(C)NC(=O)c4ccccc4N3)cc2)c2nnnn2C(C)(C)C)cc1 (stereo not given)"
  Target entity: "Leishmania donovani"
  pIC50: 5.11
- Compound: "COc1ccc(C(Nc2ccc(C3(C)NC(=O)c4ccccc4N3)cc2)c2nnnn2C(C)(C)C)cc1 (stereo not given)"
  Target entity: "Leishmania donovani"
  pIC50: 4.88
- Compound: "Nc1nc(-c2ccc(Br)cc2)cc(-c2ccc(C3NC(=O)c4ccccc4N3)cc2)n1 (stereo not given)"
  Target entity: "Leishmania donovani"
  pIC50: 5.15
- Compound: "CCCCNc1nc(NCCCC)nc(Nc2ccc(C3(C)NC(=O)c4ccccc4N3)cc2)n1 (stereo not given)"
  Target entity: "Leishmania donovani"
  pIC50: 5.32

[a] CC1(c2ccc(Nc3nc(N4CCc5ccccc5C4)nc(N4CCc5ccccc5C4)n3)cc2)NC(=O)c2ccccc2N1 (stereo not given)
[b] CC(C)(C)NC(=O)C(c1ccc(Br)cc1)N(C(=O)c1cccc(Cl)c1)c1ccc(C2(C)NC(=O)c3ccccc3N2)cc1 (stereo not given)
[c] COc1ccc(C(C(=O)NC(C)(C)C)N(C(=O)c2cccc(Cl)c2)c2ccc(C3(C)NC(=O)c4ccccc4N3)cc2)cc1 (stereo not given)
[d] CC1(c2ccc(NC(c3ccc(Br)cc3)c3nnnn3C(C)(C)C)cc2)NC(=O)c2ccccc2N1 (stereo not given)
IN: Put the items in sequence by pIC50, from largest down. Hello, could you send the labels back in the order asked? Thank you.
OUT: a, d, b, c

[I] COc1ccc(C(Nc2ccc(C3(C)NC(=O)c4ccccc4N3)cc2)c2nnnn2C(C)(C)C)c2ccccc12 (stereo not given)
[II] CC(C)(C)Nc1nc(Nc2ccc(C3(C)NC(=O)c4ccccc4N3)cc2)nc(NC(C)(C)C)n1 (stereo not given)
[III] CCCCCNc1nc(NCCCCC)nc(Nc2ccc(C3(C)NC(=O)c4ccccc4N3)cc2)n1 (stereo not given)
IN: Kindly order the items shown according to pIC50, from the highest value down. Order the labels as requested and give them as your answer.
OUT: III, II, I

[P] Nc1nc(-c2ccccc2)cc(-c2ccc(C3NC(=O)c4ccccc4N3)cc2)n1 (stereo not given)
[Q] CC1(c2ccc(NC(c3ccc(Cl)cc3)c3nnnn3C(C)(C)C)cc2)NC(=O)c2ccccc2N1 (stereo not given)
IN: Hello, I am sorting some records. Could you say if P or Q has the smaller pIC50 value? Answer = label.
OUT: P

[P] COc1ccc(C(C(=O)NC2CCCCC2)N(C(=O)c2cccc(Cl)c2)c2ccc(C3(C)NC(=O)c4ccccc4N3)cc2)cc1 (stereo not given)
[Q] CC(C)c1ccc(C(C(=O)NC2CCCCC2)N(C(=O)c2cccc(Cl)c2)c2ccc(C3(C)NC(=O)c4ccccc4N3)cc2)cc1 (stereo not given)
[R] CC1(c2ccc(Nc3nc(N4CCCCCC4)nc(N4CCCCCC4)n3)cc2)NC(=O)c2ccccc2N1 (stereo not given)
[S] CC1(c2ccc(NC(c3ccc(Br)cc3)c3nnnn3C3CCCCC3)cc2)NC(=O)c2ccccc2N1 (stereo not given)
IN: Sort (4 compounds) by pIC50: min first. Put the labels in the order asked and list them.
OUT: P, S, Q, R

[1] CC1(c2ccc(NC(c3ccc(Cl)cc3)c3nnnn3C3CCCCC3)cc2)NC(=O)c2ccccc2N1 (stereo not given)
[2] COc1cccc(-c2cc(-c3ccc(C4NC(=O)c5ccccc5N4)cc3)nc(N)n2)c1OC (stereo not given)
IN: # argmax over pIC50 for candidates 1 and 2 Please respond with the label that marks your chosen entry.
OUT: 2

[A] CC(C)c1ccc(C(C(=O)NC(C)(C)C)N(C(=O)c2cccc(Cl)c2)c2ccc(C3(C)NC(=O)c4ccccc4N3)cc2)cc1 (stereo not given)
[B] CC1(c2ccc(Nc3nc(NCc4ccccc4)nc(NCc4ccccc4)n3)cc2)NC(=O)c2ccccc2N1 (stereo not given)
IN: Could you please tell me which of these two has the higher pIC50: A or B ? Pick one and reply with its label.
OUT: B
(B: 5.17, A: 4.92)

* * *

# Assay overview: Cytotoxicity against african green monkey Vero cells after 72 hrs by MTT assay
# Assay type: cell-based
# Cond: chlorocebus sabaeus
Assay endpoint: CC50 at 72 h

Record excerpt, results attached:
- Compound: "Nc1nc(-c2ccc(Cl)cc2)cc(-c2ccc(C3NC(=O)c4ccccc4N3)cc2)n1 (stereo not given)"
  CC50 at 72 h: "323 µM"
- Compound: "COc1ccc(C(Nc2ccc(C3(C)NC(=O)c4ccccc4N3)cc2)c2nnnn2C(C)(C)C)cc1 (stereo not given)"
  CC50 at 72 h: "> 400 µM"
- Compound: "CC1(c2ccc(NC(c3ccc(Cl)cc3)c3nnnn3C3CCCCC3)cc2)NC(=O)c2ccccc2N1 (stereo not given)"
  CC50 at 72 h: "> 400 µM"
- Compound: "CC(C)(C)NC(=O)C(c1ccc(Cl)cc1)N(C(=O)c1cccc(Cl)c1)c1ccc(C2(C)NC(=O)c3ccccc3N2)cc1 (stereo not given)"
  CC50 at 72 h: "> 400 µM"
- Compound: "Nc1nc(-c2ccc(Br)cc2)cc(-c2ccc(C3NC(=O)c4ccccc4N3)cc2)n1 (stereo not given)"
  CC50 at 72 h: "> 400 µM"

get_value(item= CC(C)c1ccc(C(Nc2ccc(C3(C)NC(=O)c4ccccc4N3)cc2)c2nnnn2C2CCCCC2)cc1 (stereo not given) , readout=CC50 at 72 h) returns > 400 µM

Measured CC50 at 72 h, CC1(c2ccc(Nc3nc(N4CCc5ccccc5C4)nc(N4CCc5ccccc5C4)n3)cc2)NC(=O)c2ccccc2N1 (stereo not given) : > 400 µM

// recorded CC50 at 72 h for CC(C)c1ccc(C(C(=O)NC2CCCCC2)N(C(=O)c2cccc(Cl)c2)c2ccc(C3(C)NC(=O)c4ccccc4N3)cc2)cc1 (stereo not given) : > 400 µM

Lab note: measured CC50 at 72 h of CC1(c2ccc(NC(c3ccc(Br)cc3)c3nnnn3C3CCCCC3)cc2)NC(=O)c2ccccc2N1 (stereo not given) was > 400 µM

Entry under test: CC1(c2ccc(Nc3nc(N4CCCCCC4)nc(N4CCCCCC4)n3)cc2)NC(=O)c2ccccc2N1 (stereo not given) . Its CC50 at 72 h was > 400 µM

* * *

# reported IC50; entries follow
# System: Leishmania donovani
# Assay overview: Antileishmanial activity against amastigotes of Leishmania donovani MHOM/IN/60/Dd8 infected in mouse J-774A.1 cells after 72 hrs by luciferase reporter gene assay
# Assay type: functional, organism-based
# Cond: MHOM/IN/60/Dd8, J774.A1, 72 h

Some entries whose results are on file:
- Molecule: "CC1(c2ccc(Nc3nc(N4CCOCC4)nc(N4CCOCC4)n3)cc2)NC(=O)c2ccccc2N1 (centres undefined)"
  Assay value: "> 40 µM"
- Molecule: "CC1(c2ccc(NC(c3ccncc3)c3nnnn3C(C)(C)C)cc2)NC(=O)c2ccccc2N1 (centres undefined)"
  Assay value: "> 40 µM"
- Molecule: "COc1cc(C(Nc2ccc(C3(C)NC(=O)c4ccccc4N3)cc2)c2nnnn2C(C)(C)C)cc(OC)c1OC (centres undefined)"
  Assay value: "> 40 µM"

Query molecule follows.
Entry under test: CC1(c2ccc(NC(c3cccc4ccccc34)c3nnnn3C(C)(C)C)cc2)NC(=O)c2ccccc2N1 (centres undefined) . Its IC50 was > 20 µM
